tested on: PC-9 cells (EGFR Ex19Del); assay: Potency Assay: pERK (SOS1 pERK IC50 Assay, AlphaLISA SureFire Ultra p-ERK1/2); format: cell-based; conditions: Homo sapiens; PC-9 cells (EGFR Ex19Del), 1 hour incubation, AlphaLISA p-ERK1/2; read-out: SOS1 pERK IC50
pIC50: −log10 of the molar value.
The reader will find reported pIC50 values listed item by item below.

Examples from the recorded data:
Task: Request the reported pIC50 associated with COc1ccc(C(=O)N2CCc3nc(Cl)nc(N[C@H](C)c4cc(N)cc(C(F)(F)F)c4)c3C2)nc1
Output: < 6.00

Task: Also C[C@@H](Nc1nc(Cl)nc2c1CN(C(=O)N1CCNCC1)C2)c1cccc(C(F)F)c1F ?
Output: > 6.00

Task: Also C[C@@H](Nc1nc(C(F)F)nc2c1CN(C(=O)N1CCOCC1)C2)c1cc(N)cc(C(F)(F)F)c1 ?
Output: > 6.00

Task: Also Cc1nc2c(c(N[C@H](C)c3cc(N)cc(C(F)(F)F)c3)n1)CN(C(=O)N1CC(O)C1)C2 ?
Output: < 6.00

Task: Also C[C@@H](Nc1nc(Cl)nc2c1CN(C(=O)C1C3COCC31)C2)c1cc(N)cc(C(F)(F)F)c1 (stereo partly shown) ?
Output: > 6.00

More entries:
Task: Request the reported pIC50 associated with COc1cnc(C(=O)N2Cc3nc(Cl)nc(N[C@H](C)c4cc(N)cc(C(F)(F)F)c4)c3C2)cc1OC
Output: > 6.00

Task: Also C[C@@H](Nc1nc(Cl)nc2c1CN(C(=O)N1CCOc3ncccc31)C2)c1cc(N)cc(C(F)(F)F)c1 ?
Output: > 6.00

---

system: PC-9 cells (EGFR Ex19Del); experiment: Potency Assay: pERK (SOS1 pERK IC50 Assay, AlphaLISA SureFire Ultra p-ERK1/2); format: cell-based; conditions: Homo sapiens; PC-9 cells (EGFR Ex19Del), 1 hour incubation, AlphaLISA p-ERK1/2; read-out: SOS1 pERK IC50
pIC50: −log10 of the molar value.
The reader will find reported pIC50 values listed item by item below.

Examples from the recorded data:
Task: Request the reported pIC50 associated with C[C@@H](Nc1nc(Cl)nc2c1CN(S(=O)(=O)c1c[nH]cn1)CC2)c1cc(N)cc(C(F)(F)F)c1 [Example 458]
Output: > 6.00

Task: Also C[C@@H](Nc1nc(Cl)nc2c1CN(C(=O)C1CN(C)CCO1)C2)c1cccc(C(F)F)c1F (some centres unmarked) [Example 298] ?
Output: < 6.00

Task: Also C[C@@H](Nc1nc(Cl)nc2c1CN(C(=O)c1cc(N3CCOCC3)nc(N3CCOCC3)n1)CC2)c1cc(N)cc(C(F)(F)F)c1 [Example 230] ?
Output: < 6.00

More entries:
Task: Request the reported pIC50 associated with C[C@@H](Nc1nc(Cl)nc2c1CN(C(=O)N1C[C@H]3CNC[C@H]3C1)C2)c1cccc(C(F)(F)F)c1 [Example 380]
Output: < 6.00

Task: Also C[C@@H](Nc1nc(Cl)nc2c1CN(C(=O)c1cc(N3CCOCC3)ccn1)CC2)c1cc(N)cc(C(F)(F)F)c1 [Example 238] ?
Output: < 6.00

Task: Also C[C@@H](Nc1nc(Cl)nc2c1CN(C(=O)[C@H]1[C@@H]3CNC[C@@H]31)C2)c1cc(N)cc(C(F)(F)F)c1 [Example 269] ?
Output: < 6.00

Task: Also C[C@@H](Nc1nc(Cl)nc2c1CN(C(=O)c1ccc3c(n1)CCNC3)C2)c1cc(N)cc(C(F)(F)F)c1 [Example 82] ?
Output: > 6.00

Task: Also C[C@@H](Nc1nc(Cl)nc2c1CN(C(=O)N1CCOc3cccnc31)C2)c1cccc(C(F)(F)F)c1 [Example 368] ?
Output: > 6.00

Task: Also C[C@@H](Nc1nc(Cl)nc2c1CN(C(=O)C13COCC(CO1)C3)C2)c1cc(N)cc(C(F)(F)F)c1 (some centres unmarked) [Example 273] ?
Output: > 6.00

Task: Also C[C@@H](Nc1nc(Cl)nc2c1CN(C(=O)[C@@H]1CNCCO1)C2)c1cccc(C(F)F)c1F [Example 303] ?
Output: > 6.00

Task: Also C[C@@H](Nc1nc(Cl)nc2c1CN(S(=O)(=O)C1COC1)CC2)c1cc(N)cc(C(F)(F)F)c1 [Example 453] ?
Output: > 6.00

Task: Also C[C@@H](Nc1nc(Cl)nc2c1CN(C(=O)N1CC3CCC(C1)N3C)C2)c1cccc(C(F)F)c1F [Example 429] ?
Output: > 6.00

Task: Also C[C@@H](Nc1nc(Cl)nc2c1CN(C(=O)N1CCOCC1)C2)c1cncc(C(F)(F)F)c1 [Example 480] ?
Output: < 6.00

Task: Also C[C@@H](Nc1nc(Cl)nc2c1CN(C(=O)[C@]13COC[C@H]1CS(=O)(=O)C3)CC2)c1cc(N)cc(C(F)(F)F)c1 [Example 215] ?
Output: < 6.00

---

The reader will find reported IC50 values listed item by item below.
test system: PC-9 cells (EGFR Ex19Del); experiment: Potency Assay: pERK (SOS1 pERK IC50 Assay, AlphaLISA SureFire Ultra p-ERK1/2); format: cell-based; settings: Homo sapiens; PC-9 cells (EGFR Ex19Del), 1 hour incubation, AlphaLISA p-ERK1/2; read-out: SOS1 pERK IC50

Examples from the recorded data:
Task: // fetch PC-9 cells (EGFR Ex19Del) IC50 for C[C@@H](Nc1nc(Cl)nc2c1CN(C(=O)c1ccc(N3CCOCC3)cn1)C2)c1cc(N)cc(C(F)(F)F)c1 [Example 84]
Output: < 1 µM

Task: Also C[C@@H](Nc1nc(Cl)nc2c1CN(C(=O)C1(C)CCN(C)CC1)C2)c1cc(N)cc(C(F)(F)F)c1 [Example 262] ?
Output: < 1 µM

Task: Also C[C@@H](Nc1nc(Cl)nc2c1CN(C(=O)N1C[C@H]3C[C@@H]1CN3)C2)c1cc(N)cc(C(F)(F)F)c1 [Example 360] ?
Output: > 1 µM

Task: Also C[C@@H](Nc1nc(Cl)nc2c1CN(C(=O)N1CCNC(C(F)(F)F)C1)C2)c1cc(N)cc(C(F)(F)F)c1 (stereo partly drawn) [Example 359] ?
Output: < 1 µM

Task: Also C[C@@H](Nc1nc(Cl)nc2c1CN(C(=O)N1CCOCC1)C2)c1cccc(C(F)(F)F)n1 [Example 473] ?
Output: > 1 µM

More entries:
Task: // fetch PC-9 cells (EGFR Ex19Del) IC50 for C[C@@H](Nc1nc(Cl)nc2c1CN(C(=O)N1C3COCC1COC3)C2)c1cccc(C(F)F)c1F [Example 409]
Output: < 1 µM

Task: Also C[C@@H](Nc1nc(Cl)nc2c1CN(C(=O)N1CCOCC1)C2)c1cnc(C(F)(F)F)s1 [Example 474] ?
Output: > 1 µM

Task: Also C[C@@H](Nc1nc(CN2CCOCC2)nc2c1CN(C(=O)N1CCOCC1)C2)c1cc(N)cc(C(F)(F)F)c1 [Example 504] ?
Output: > 1 µM

---

test system: PC-9 cells (EGFR Ex19Del); test: Potency Assay: pERK (SOS1 pERK IC50 Assay, AlphaLISA SureFire Ultra p-ERK1/2); type: cell-based; details: Homo sapiens; PC-9 cells (EGFR Ex19Del), 1 hour incubation, AlphaLISA p-ERK1/2; read-out: SOS1 pERK IC50
pIC50: −log10 of the molar value.
MEASURED_METRIC: pIC50

Examples from the recorded data:
Task: Request the reported pIC50 associated with C[C@@H](Nc1nc(Cl)nc2c1CN(C(=O)C1(F)CCNCC1)C2)c1cc(N)cc(C(F)(F)F)c1 [Example 272]
Output: > 6.00

Task: Also C[C@@H](Nc1nc(Cl)nc2c1CN(C(=O)C1CC13CCOCC3)CC2)c1cc(N)cc(C(F)(F)F)c1 (stereo partly shown) [Example 197] ?
Output: < 6.00

Task: Also C[C@@H](Nc1nc(Cl)nc2c1CN(C(=O)c1cccc(OC3CCOCC3)n1)C2)c1cc(N)cc(C(F)(F)F)c1 [Example 83] ?
Output: > 6.00

More entries:
Task: Request the reported pIC50 associated with CC(Nc1nc(Cl)nc2c1CN(C(=O)N1CCOCC1)C2)c1cccc(CCO)c1 (stereo not shown) [Example 501]
Output: < 6.00

---

Target: SOS1 catalytic domain (residues 564-1049) (Homo sapiens, UniProt Q07889)
Sequence (Q07889 564-1049): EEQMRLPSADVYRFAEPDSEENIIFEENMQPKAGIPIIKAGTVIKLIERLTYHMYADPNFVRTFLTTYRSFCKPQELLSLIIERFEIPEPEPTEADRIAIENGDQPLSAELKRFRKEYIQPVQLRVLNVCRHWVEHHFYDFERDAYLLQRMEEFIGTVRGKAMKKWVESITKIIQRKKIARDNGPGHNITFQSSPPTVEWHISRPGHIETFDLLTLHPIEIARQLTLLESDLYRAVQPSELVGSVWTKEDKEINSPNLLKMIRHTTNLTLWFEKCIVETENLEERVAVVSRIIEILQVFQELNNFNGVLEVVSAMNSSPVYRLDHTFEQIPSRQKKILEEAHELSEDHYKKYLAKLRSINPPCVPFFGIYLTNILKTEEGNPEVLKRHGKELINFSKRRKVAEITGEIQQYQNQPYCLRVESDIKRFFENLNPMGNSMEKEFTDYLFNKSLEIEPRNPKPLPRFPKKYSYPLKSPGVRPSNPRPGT
The reader will find reported IC50 values listed item by item below.

Examples from the recorded data:
Task: Request the reported IC50 associated with CNCc1ccccc1-c1cnc(C(C)Nc2nc(Cl)nc3c2CN(C(=O)N2CCOCC2)C3)s1 (stereo not drawn)
Output: > 1 µM

Task: Also C[C@@H](Nc1nc(Cl)nc2c1CN(C(=O)[C@H]1CC[C@@H](O)CC1)C2)c1cc(N)cc(C(F)(F)F)c1 ?
Output: < 1 µM

Task: Also C[C@@H](Nc1nc(Cl)nc2c1CN(C(=O)c1cccnn1)CC2)c1cc(N)cc(C(F)(F)F)c1 ?
Output: < 1 µM

Task: Also Cc1nc2c(c(N[C@H](C)c3cc(N)cc(C(F)(F)F)c3)n1)CN(C(=O)OC1CCOCC1)C2 ?
Output: < 1 µM

Task: Also C[C@@H](Nc1nc(Cl)nc2c1CN(C(=O)c1ccc3c(n1)CCNC3)C2)c1cc(N)cc(C(F)(F)F)c1 ?
Output: < 1 µM

Shift focus to the following entry.
Task: Request the reported IC50 associated with CC(Nc1nc(Cl)nc2c1CN(C(=O)N1CCOCC1)C2)c1cccc(C2(F)CNC2)c1 (stereo not drawn)
Output: < 1 µM
